All figures here come from patent US20220288052A1.

protocol-details: Exposure and tissue distribution after 14 days repeat dosing, mouse
Format: in vivo
condition-set: NMRI, mouse, plasma, po; Male mice, 60 mg/kg p.o. 14 days, 2 h post last dose; read-out: Plasma concentration
result-type: concentration at 2 h (ng/mL)
Numbers only, in ng/mL.

[in] # concentration at 2 h lookup, item "O=c1ccc2ccc(O[C@@H]3C[C@H]4CC[C@@H](C3)N4)cc2o1"
[out] 1420

----------
protocol-details: Exposure and tissue distribution after 14 days repeat dosing, mouse
Format: in vivo
condition-set: mouse, plasma, po; Male mice, 90 mg/kg p.o. 14 days, 2 h post last dose; read-out: Plasma concentration
result-type: concentration at 2 h (µg/mL)
Answers are plain numbers, in µg/mL.

[in] Which concentration at 2 h value is on record for "O=c1ccc2ccc(O[C@@H]3C[C@H]4CC[C@@H](C3)N4)cc2o1" ?
[out] 4.73

----------
Test system: plasma protein
protocol-details: Plasma protein binding by equilibrium dialysis, rat
Type: in vitro ADME
condition-set: 2710 ng/ml
result-type: fraction unbound at 2710 ng/ml
Answers are plain numbers.

[in] Item under review: "O=c1ccc2ccc(O[C@@H]3C[C@H]4CC[C@@H](C3)N4)cc2o1" . Reported fraction unbound at 2710 ng/ml?
[out] 0.635

----------
protocol-details: Tissue distribution after single dose, mouse
Format: in vivo
condition-set: po; Lung, female NMRI mouse 10 mg/kg p.o.; read-out: T½ (converted)
result-type: half-life (min)
Give bare numbers, in min.

[in] Sample "O=c1ccc2ccc(O[C@@H]3C[C@H]4CC[C@@H](C3)N4)cc2o1" — what was its half-life?
[out] 132

----------
protocol-details: Exposure and tissue distribution after 14 days repeat dosing, mouse
Format: in vivo
condition-set: NMRI, mouse, brain, po; Male mice, 15 mg/kg p.o. 14 days, 2 h post last dose; read-out: Brain concentration
result-type: concentration at 2 h (ng/g)
Answers are plain numbers, in ng/g.

[in] Reported concentration at 2 h, compound "O=c1ccc2ccc(O[C@@H]3C[C@H]4CC[C@@H](C3)N4)cc2o1" : ____
[out] 1970

----------
protocol-details: Bioavailability study in mouse
Assay type: in vivo
condition-set: female, NMRI, plasma, po, 10 mg/kg, 10 mg/kg p.o., read-out: AUC(0-∞) p.o.
result-type: AUC(0-inf)
Please answer using a numeric value trailed by its unit.

[in] // query AUC(0-inf) value for entry "O=c1ccc2ccc(O[C@@H]3C[C@H]4CC[C@@H](C3)N4)cc2o1"
[out] 1720 ng·h/mL

----------
target-desc: NA transporter (Homo sapiens, UniProt P23975)
Sequence (P23975 whole entry): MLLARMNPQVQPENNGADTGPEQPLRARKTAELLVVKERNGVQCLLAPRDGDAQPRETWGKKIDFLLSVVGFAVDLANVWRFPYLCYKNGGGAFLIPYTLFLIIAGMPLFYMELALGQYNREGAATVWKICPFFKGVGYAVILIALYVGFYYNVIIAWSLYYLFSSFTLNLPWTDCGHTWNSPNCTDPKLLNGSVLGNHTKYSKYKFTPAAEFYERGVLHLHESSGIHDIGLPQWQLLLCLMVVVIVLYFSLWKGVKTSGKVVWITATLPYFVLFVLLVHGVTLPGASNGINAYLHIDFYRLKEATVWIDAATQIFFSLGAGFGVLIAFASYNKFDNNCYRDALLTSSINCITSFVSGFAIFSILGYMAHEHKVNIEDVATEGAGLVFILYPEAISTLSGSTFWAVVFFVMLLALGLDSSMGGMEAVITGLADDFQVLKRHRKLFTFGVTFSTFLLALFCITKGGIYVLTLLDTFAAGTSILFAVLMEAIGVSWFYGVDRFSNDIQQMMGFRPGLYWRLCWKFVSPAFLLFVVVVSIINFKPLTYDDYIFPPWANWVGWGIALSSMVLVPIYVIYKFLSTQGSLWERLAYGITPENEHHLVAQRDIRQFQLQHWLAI
protocol-details: ^3H-Nisoxetine binding, human
result-type: Ki (nM)
Give bare numbers, in nM.

[in] Which Ki value belongs to O=c1ccc2ccc(O[C@@H]3C[C@H]4CC[C@@H](C3)N4)cc2o1 [Compound (I)] ?
[out] 270

----------
target-desc: 5-HT transporter (Rattus norvegicus)
Sequence (P31652 whole entry): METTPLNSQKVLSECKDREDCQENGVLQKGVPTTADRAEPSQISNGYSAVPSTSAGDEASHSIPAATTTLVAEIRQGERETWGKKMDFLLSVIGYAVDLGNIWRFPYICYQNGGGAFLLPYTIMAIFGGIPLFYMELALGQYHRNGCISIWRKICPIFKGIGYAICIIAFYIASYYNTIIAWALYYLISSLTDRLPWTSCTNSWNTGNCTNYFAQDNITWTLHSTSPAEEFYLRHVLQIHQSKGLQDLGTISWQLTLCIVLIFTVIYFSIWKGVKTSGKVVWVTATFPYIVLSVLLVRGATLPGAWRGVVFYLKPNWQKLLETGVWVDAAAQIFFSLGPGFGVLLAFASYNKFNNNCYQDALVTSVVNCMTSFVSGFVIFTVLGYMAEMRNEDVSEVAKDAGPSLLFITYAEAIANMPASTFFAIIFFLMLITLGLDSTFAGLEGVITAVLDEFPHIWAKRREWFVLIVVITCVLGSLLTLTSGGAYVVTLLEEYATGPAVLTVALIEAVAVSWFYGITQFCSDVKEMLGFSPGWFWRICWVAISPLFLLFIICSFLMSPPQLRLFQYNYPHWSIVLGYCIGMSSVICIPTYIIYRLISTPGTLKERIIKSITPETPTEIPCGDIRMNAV
result-type: pKi
Give bare numbers, as −log10 of the molar value.

[in] What pKi value was documented for this molecule, "O=c1ccc2ccc(O[C@@H]3C[C@H]4CC[C@@H](C3)N4)cc2o1" ?
[out] 9.55

----------
protocol-details: Exposure and tissue distribution after 14 days repeat dosing, mouse
Assay type: in vivo
condition-set: NMRI, mouse, in vivo, po; Female mice, 30 mg/kg p.o. 14 days, 2 h post last dose; read-out: Liver/plasma ratio
result-type: Kp at 2 h
Give bare numbers.

[in] Looking for the measured Kp at 2 h of "O=c1ccc2ccc(O[C@@H]3C[C@H]4CC[C@@H](C3)N4)cc2o1" , can you help?
[out] 18
